Record form. Attribute: IC50. Fill in for each entry.
system: HGC-27; experiment: cells; type: functional, cell-based; conditions: Homo sapiens;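 also: growth inhibition of human HGC-27 cells, read out in a cell viability assay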
Description: SANGER: Inhibition of human HGC-27 cell growth in a cell viability assay.

Exercise: Form field: reported IC50 of Cn1cc(/C=C2\C(=O)Nc3cccnc32)c2ccccc21
Key: > 2000 nM

Exercise: So what's the measured IC50 for this one? CC(O)(CS(=O)(=O)c1ccc(F)cc1)C(=O)Nc1ccc(C#N)c(C(F)(F)F)c1 (centres undefined) [BICALUTAMIDE]
Key: > 1020 nM

Exercise: Requested field: IC50. Item: CC[C@@]1(O)C(=O)OCc2c1cc1n(c2=O)Cc2cc3ccccc3nc2-1 [CAMPTOTHECIN]
Key: 4.07 nM

Exercise: I am curious: what IC50 value has been reported for CC[C@]1(O)C[C@@H]2CN(CCc3c([nH]c4ccccc34)[C@@](C(=O)OC)(c3cc4c(cc3OC)N(C)[C@H]3[C@@](O)(C(=O)OC)[C@H](OC(C)=O)[C@]5(CC)C=CCN6CC[C@]43[C@@H]65)C2)C1 [VINBLASTINE] ?
Key: 1.01 nM
